Target: Recombinant human liver GK1 (GST-GK) (Homo sapiens)
Construct: made in house; host or cells: E. coli
Sequence (P35557 1-466 isoform P35557-2): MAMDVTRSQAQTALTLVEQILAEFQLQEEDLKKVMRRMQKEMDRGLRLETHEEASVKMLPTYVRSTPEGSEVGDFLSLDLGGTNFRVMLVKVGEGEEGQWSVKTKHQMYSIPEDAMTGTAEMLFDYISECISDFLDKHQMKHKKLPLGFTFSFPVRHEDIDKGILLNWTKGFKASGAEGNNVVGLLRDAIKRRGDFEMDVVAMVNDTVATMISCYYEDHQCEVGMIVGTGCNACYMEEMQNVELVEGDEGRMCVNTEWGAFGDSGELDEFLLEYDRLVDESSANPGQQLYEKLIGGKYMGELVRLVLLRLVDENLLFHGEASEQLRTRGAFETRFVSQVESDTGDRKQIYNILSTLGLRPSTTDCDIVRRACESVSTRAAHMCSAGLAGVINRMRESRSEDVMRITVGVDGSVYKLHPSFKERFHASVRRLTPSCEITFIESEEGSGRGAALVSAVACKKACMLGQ
Experiment: In vitro glucokinase activity, G6PDH-coupled spectrophotometric assay
Format: biochemical
Conditions: 5 mM D-glucose, 30° C., pH 7.1
Could you label it Yes if measured SC1.5 (concentration of activator that produced a 50% increase in the activity of GK) is 1 µM or higher, and No otherwise?

>  <compound>
CC(C)CC(C(=O)Nc1ccccn1)N1C(=O)Cc2c(Cl)cccc21 (centres unmarked)

>  <answer label>
Yes

$$$$
>  <compound>
CS(=O)(=O)c1ccc2c(c1)N(C(CC1CCCC1)C(=O)Nc1nccs1)C(=O)C2 (centres unmarked)

>  <answer label>
Yes

$$$$
>  <compound>
Cn1ccc(NC(=O)C(CC2CCCC2)N2C(=O)C(=O)c3c(Cl)cccc32)n1 (centres unmarked)

>  <answer label>
Yes

$$$$
>  <compound>
O=C(Nc1ccccn1)C(CC1CCCC1)N1C(=O)Cc2cc(OC(F)(F)F)ccc21 (centres unmarked)

>  <answer label>
No

$$$$
>  <compound>
O=C(Nc1nccs1)C(CC1CCCC1)N1C(=O)Cc2cc(OC(F)(F)F)ccc21 (centres unmarked)

>  <answer label>
No

$$$$
>  <compound>
Cn1ccc(NC(=O)C(CC2CCCC2)N2C(=O)Cc3ccc(F)cc32)n1 (centres unmarked)

>  <answer label>
Yes

$$$$
>  <compound>
Cn1ccc(NC(=O)C(CC2CCCC2)N2C(=O)Cc3ccc(Cl)cc32)n1 (centres unmarked)

>  <answer label>
Yes

$$$$
>  <compound>
CC(C)CC(C(=O)Nc1nccs1)N1C(=O)C(=O)c2ccc(Cl)cc21 (centres unmarked)

>  <answer label>
Yes

$$$$

* * *

Target: Recombinant human liver GK1 (GST-GK) (Homo sapiens, UniProt P35557)
Construct: made in house; host or cells: E. coli
Assay: In vitro glucokinase activity, G6PDH-coupled spectrophotometric assay
Format: biochemical
Conditions: 5 mM D-glucose, 30° C., pH 7.1
SC1.5 (concentration of activator that produced a 50% increase in the activity of GK) reference
recorded metric: SC1.5 (concentration of activator that produced a 50% increase in the activity of GK) (µM)

>  <compound>
CC(C)CC(C(=O)Nc1ccccn1)N1C(=O)C(=O)c2ccc(Cl)cc21 (centres unmarked) [Example 110]

>  <unit abbreviation>
µM

>  <measured value>
1.49

$$$$
>  <compound>
CC(C)CC(C(=O)Nc1ccn(C)n1)N1C(=O)Cc2ccc(Cl)cc21 (centres unmarked) [Example 116]

>  <unit abbreviation>
µM

>  <measured value>
7.27

$$$$
>  <compound>
O=C1C(=O)N(C(CC2CCCC2)C(=O)Nc2cnccn2)c2ccccc21 (centres unmarked) [Example 1]

>  <unit abbreviation>
µM

>  <measured value>
18.64

$$$$
>  <compound>
Cc1ccc2c(c1)CC(=O)N2C(CC(C)C)C(=O)Nc1cnccn1 (centres unmarked) [Example 91]

>  <unit abbreviation>
µM

>  <measured value>
28.45

$$$$
>  <compound>
O=C(Nc1ccccn1)C(CC1CCCC1)N1C(=O)Cc2cc(Cl)ccc21 (centres unmarked) [Example 100]

>  <unit abbreviation>
µM

>  <measured value>
0.49

$$$$
